Would you mind telling me the reported log10(IC50) of each entry?
# target or system: Prostaglandin G/H synthase 2 (Homo sapiens)
# Sequence (P35354 whole entry): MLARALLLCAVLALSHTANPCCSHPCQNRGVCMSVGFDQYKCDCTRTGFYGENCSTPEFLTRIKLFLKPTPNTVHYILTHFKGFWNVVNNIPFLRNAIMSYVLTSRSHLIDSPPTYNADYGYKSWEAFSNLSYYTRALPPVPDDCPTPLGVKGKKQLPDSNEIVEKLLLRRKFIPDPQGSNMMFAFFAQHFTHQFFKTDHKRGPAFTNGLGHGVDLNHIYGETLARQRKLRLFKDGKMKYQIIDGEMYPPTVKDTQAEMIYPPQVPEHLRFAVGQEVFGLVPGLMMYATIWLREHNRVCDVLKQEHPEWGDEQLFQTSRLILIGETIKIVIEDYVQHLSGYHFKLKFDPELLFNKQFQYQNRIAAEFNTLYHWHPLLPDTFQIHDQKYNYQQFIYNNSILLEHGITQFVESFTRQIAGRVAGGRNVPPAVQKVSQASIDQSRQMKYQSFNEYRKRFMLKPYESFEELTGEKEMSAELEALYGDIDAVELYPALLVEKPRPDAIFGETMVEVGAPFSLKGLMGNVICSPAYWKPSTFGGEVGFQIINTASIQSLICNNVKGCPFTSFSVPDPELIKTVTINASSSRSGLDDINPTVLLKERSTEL
# experiment: In vitro inhibitory activity against prostaglandin G/H synthase 2 stably transfected in Chinese hamster ovary (CHO) cells
# Type: cell-based
Could you please treat all values as log10 of IC50 in nM?

According to the records, this molecule C[C@H]1C[C@H]1Cn1ncc(-c2ccc(S(C)(=O)=O)cc2)c(-c2ccc(F)cc2)c1=O (racemic) displays log10(IC50) of 1.70

Lab book: log10(IC50) of CC(C1CC1)n1ncc(-c2ccc(S(C)(=O)=O)cc2)c(-c2ccc(F)cc2)c1=O (racemic) noted as 2.30

Just so you know, measured log10(IC50) for Cc1ccc(-c2c(-c3ccc(S(C)(=O)=O)cc3)cnn(Cc3ccccc3)c2=O)cc1 came out at 1.30

log10(IC50) in this record for CC1(Cn2ncc(-c3ccc(S(C)(=O)=O)cc3)c(-c3ccc(F)cc3)c2=O)CC1 : 2.30

Sample Cn1ncc(-c2ccc(S(C)(=O)=O)cc2)c(-c2ccccc2)c1=O ; log10(IC50) observed: 2.48

For this molecule ( CC1(C)CC1Cn1ncc(-c2ccc(S(C)(=O)=O)cc2)c(-c2ccc(F)cc2)c1=O (racemic) ), measured log10(IC50) is 1.48

// log10(IC50) lookup, molecule = CS(=O)(=O)c1ccc(-c2cnn(Cc3ccccc3)c(=O)c2Sc2ccccc2)cc1 , result: 2.57

CS(=O)(=O)c1ccc(-c2cnn(Cc3cccnc3)c(=O)c2-c2ccccc2)cc1 has a reported log10(IC50) of 3.11

// recorded log10(IC50) for CS(=O)(=O)c1ccc(-c2cnn(CCC3CC3)c(=O)c2-c2ccc(F)cc2)cc1 : 2.30

Record CS(=O)(=O)c1ccc(-c2cnn(Cc3ccccc3)c(=O)c2OCC2CC2)cc1 , field log10(IC50): 0.48

Record C[C@H]1C[C@@H]1Cn1ncc(-c2ccc(S(C)(=O)=O)cc2)c(-c2ccc(F)cc2)c1=O . Reported log10(IC50): 1.78

get_value(item= C[C@H]1C(Cn2ncc(-c3ccc(S(C)(=O)=O)cc3)c(-c3ccc(F)cc3)c2=O)[C@@H]1C (mixture of isomers) , readout=log10(IC50)) returns 1.70

For this molecule ( CS(=O)(=O)c1ccc(-c2cnn(Cc3nccs3)c(=O)c2-c2ccc(F)cc2)cc1 ), measured log10(IC50) is 2.78

Record C[C@@H]1C[C@H]1Cn1ncc(-c2ccc(S(C)(=O)=O)cc2)c(-c2ccc(F)cc2)c1=O , field log10(IC50): 1.78
